measured-target: human GLUT1^V69M (Homo sapiens, UniProt P11166, V69M)
Construct: HA (C)
Sequence (P11166 whole entry V69M): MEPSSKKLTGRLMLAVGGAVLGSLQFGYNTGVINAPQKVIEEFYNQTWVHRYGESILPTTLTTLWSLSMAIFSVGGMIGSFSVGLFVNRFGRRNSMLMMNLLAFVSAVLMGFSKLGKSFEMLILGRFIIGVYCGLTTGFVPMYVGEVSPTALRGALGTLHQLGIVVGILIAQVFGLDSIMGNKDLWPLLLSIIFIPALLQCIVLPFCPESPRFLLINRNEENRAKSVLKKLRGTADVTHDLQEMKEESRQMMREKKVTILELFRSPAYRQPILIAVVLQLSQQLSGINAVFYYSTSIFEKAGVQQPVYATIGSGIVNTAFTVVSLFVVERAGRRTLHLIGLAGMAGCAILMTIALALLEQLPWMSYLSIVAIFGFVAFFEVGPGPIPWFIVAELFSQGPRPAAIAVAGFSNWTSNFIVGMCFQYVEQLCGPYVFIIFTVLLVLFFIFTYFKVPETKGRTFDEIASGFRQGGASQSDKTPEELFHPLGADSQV
assay-name: Glucose uptake by GLUT1^V69M expressed in hxt^0 gal2Δ (RE700A) yeast
stated-conditions: 2.5 mM glucose, hxt^0 gal2Δ (RE700A)
readout-type: IC50 (µM)
Report the figure in µM without appending any unit label.

stdin: Quick check: IC50 of Cc1nc(Sc2nnc3n2CCCCC3)c2c(-c3cccs3)csc2n1 ?
stdout: 24

----------
Tested on: tps1Δ cells
assay-name: Growth rescue of tps1Δ strain on glucose (growth curves, 2% galactose medium)
Assay type: cell-based, S. cerevisiae
stated-conditions: 100 μM compound, 2.5 mM glucose
readout-type: Rescue of the tps1Δ strain on 2.5 mM glucose at 100 μM

stdin: Quick check: Rescue of the tps1Δ strain on 2.5 mM glucose at 100 μM of Cc1nc(Sc2nnc(-c3cccnc3)n2C)c2c(-c3cccs3)csc2n1 [23A] ?
stdout: Yes

stdin: Quick check: Rescue of the tps1Δ strain on 2.5 mM glucose at 100 μM of CCCNC(=O)CN1CCC(Nc2nc(C)nc3scc(-c4cccs4)c23)CC1 [30B] ?
stdout: No

stdin: Quick check: Rescue of the tps1Δ strain on 2.5 mM glucose at 100 μM of CCN(C(=O)CSc1nc(C)nc2scc(-c3cccs3)c12)C1CCS(=O)(=O)C1 (centres unmarked) ?
stdout: Yes

stdin: Quick check: Rescue of the tps1Δ strain on 2.5 mM glucose at 100 μM of CCN(CC)CCSc1nc(C)nc2sc3c(c12)CCC3 [33C] ?
stdout: No

***
stdin: Quick check: Rescue of the tps1Δ strain on 2.5 mM glucose at 100 μM of Cc1nc(SCC(=O)Nc2ccc(OC(F)(F)F)cc2)c2c(-c3cccs3)csc2n1 ?
stdout: No

stdin: Quick check: Rescue of the tps1Δ strain on 2.5 mM glucose at 100 μM of c1cnc(Sc2nc(CN3CCOCC3)nc3scc(-c4cccs4)c23)nc1 ?
stdout: No

stdin: Quick check: Rescue of the tps1Δ strain on 2.5 mM glucose at 100 μM of CCn1nnnc1Sc1ncnc2scc(-c3ccc(C)cc3)c12 [61A] ?
stdout: No

stdin: Quick check: Rescue of the tps1Δ strain on 2.5 mM glucose at 100 μM of Cc1nc(SCCN2CCOCC2)c2cc(-c3ccccc3)sc2n1 [41C] ?
stdout: No

stdin: Quick check: Rescue of the tps1Δ strain on 2.5 mM glucose at 100 μM of O=c1ccnc(Sc2nc(CN3CCOCC3)nc3scc(-c4cccs4)c23)[nH]1 ?
stdout: No

stdin: Quick check: Rescue of the tps1Δ strain on 2.5 mM glucose at 100 μM of Cc1nc(SCC(N)=O)c2c(-c3cccs3)csc2n1 [14A] ?
stdout: Yes

stdin: Quick check: Rescue of the tps1Δ strain on 2.5 mM glucose at 100 μM of Cc1nc(NCCN2CCOCC2)c2c(-c3ccccc3)csc2n1 [85C] ?
stdout: No

stdin: Quick check: Rescue of the tps1Δ strain on 2.5 mM glucose at 100 μM of c1ccc(-c2cc3c(N4CCCC4c4nnc5n4CCCCC5)ncnc3s2)cc1 (centres unmarked) [22A] ?
stdout: No

stdin: Quick check: Rescue of the tps1Δ strain on 2.5 mM glucose at 100 μM of CN(Cc1nnc2n1CCCCC2)c1ncnc2sc(-c3ccccc3)cc12 [34A] ?
stdout: No
